The measurements presented in this section are drawn from patent US20230272056A1.

# target_system: T1, human LAP-TGFB1 Fc fusion (human)
# T1 construct: also called human LAP-TGFβ1-Fc; human LAP-TGFβ-Fc isoform 1
# T1 sequence (chain, as listed by the source limits assumed): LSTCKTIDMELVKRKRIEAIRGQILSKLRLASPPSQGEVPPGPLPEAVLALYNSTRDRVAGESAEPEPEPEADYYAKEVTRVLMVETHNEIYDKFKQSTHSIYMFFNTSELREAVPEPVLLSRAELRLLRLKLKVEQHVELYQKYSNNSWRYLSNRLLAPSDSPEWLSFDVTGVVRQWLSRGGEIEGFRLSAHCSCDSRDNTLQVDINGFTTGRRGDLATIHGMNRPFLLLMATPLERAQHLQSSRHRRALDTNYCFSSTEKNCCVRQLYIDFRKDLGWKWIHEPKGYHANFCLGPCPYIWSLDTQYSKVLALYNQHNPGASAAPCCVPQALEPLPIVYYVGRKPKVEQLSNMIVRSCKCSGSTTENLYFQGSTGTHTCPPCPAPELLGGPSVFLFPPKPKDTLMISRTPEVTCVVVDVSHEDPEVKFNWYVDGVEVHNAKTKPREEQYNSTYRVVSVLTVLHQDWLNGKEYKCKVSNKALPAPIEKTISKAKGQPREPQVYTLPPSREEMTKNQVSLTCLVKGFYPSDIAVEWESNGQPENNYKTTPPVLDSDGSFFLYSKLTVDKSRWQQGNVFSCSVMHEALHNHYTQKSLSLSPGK
# assay_details: SPR pH 7.4, antigen-Fc captured, Fab analyte

binder	kon / M⁻¹ s⁻¹
54BLH (Fab, V domains shown, also called 06BLM Fab) VH: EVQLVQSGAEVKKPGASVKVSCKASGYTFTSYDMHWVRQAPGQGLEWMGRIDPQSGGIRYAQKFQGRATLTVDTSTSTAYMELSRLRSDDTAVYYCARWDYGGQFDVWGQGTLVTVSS VL: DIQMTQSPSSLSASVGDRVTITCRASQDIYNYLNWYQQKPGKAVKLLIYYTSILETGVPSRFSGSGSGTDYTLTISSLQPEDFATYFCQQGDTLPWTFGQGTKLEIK	4.96e+06
59BLH (Fab, V domains shown, also called 11BLM Fab) VH: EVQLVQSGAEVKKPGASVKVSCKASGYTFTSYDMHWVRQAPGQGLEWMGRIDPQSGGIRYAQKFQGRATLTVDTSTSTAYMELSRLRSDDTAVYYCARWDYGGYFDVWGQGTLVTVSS VL: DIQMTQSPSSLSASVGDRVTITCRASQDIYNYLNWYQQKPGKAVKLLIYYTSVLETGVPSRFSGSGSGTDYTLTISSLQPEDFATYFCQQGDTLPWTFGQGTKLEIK	7.1e+06
68BLH (Fab, V domains shown, also called 20BLM Fab) VH: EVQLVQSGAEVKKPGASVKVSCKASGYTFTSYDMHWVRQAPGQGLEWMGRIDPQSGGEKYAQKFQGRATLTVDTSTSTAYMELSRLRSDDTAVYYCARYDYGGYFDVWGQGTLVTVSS VL: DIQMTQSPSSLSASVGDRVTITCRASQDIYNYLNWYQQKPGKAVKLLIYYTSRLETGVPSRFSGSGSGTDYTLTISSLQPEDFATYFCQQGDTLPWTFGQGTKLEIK	7.57e+06
20E6 Fab (80BGJ/85BIT) (Fab, V domains shown, also called 20E6 (80BGJ); 20E6 (85BIT)) VH: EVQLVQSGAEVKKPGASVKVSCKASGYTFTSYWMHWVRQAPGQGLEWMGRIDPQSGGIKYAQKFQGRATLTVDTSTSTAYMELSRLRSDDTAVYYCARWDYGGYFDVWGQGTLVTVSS VL: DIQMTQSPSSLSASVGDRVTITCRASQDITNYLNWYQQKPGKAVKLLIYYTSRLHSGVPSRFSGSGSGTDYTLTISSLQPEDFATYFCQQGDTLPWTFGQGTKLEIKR	1.32e+06
56BLH (Fab, V domains shown, also called 08BLM Fab) VH: EVQLVQSGAEVKKPGASVKVSCKASGYTFTSYDMHWVRQAPGQGLEWMGRIDPQSGGTKYAQKFQGRATLTVDTSTSTAYMELSRLRSDDTAVYYCARWDYGGQFDVWGQGTLVTVSS VL: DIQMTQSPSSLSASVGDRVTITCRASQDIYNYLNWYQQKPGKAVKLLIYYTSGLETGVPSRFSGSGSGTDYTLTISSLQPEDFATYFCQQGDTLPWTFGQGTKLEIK	4.53e+06
